target: KRAS G12V (Homo sapiens, UniProt P01116+P62937, G12V); experiment: Disruption of BRAF RBD interaction with Ras (FRET / MOA assay, with Cyclophilin A); type: biochemical; settings: KRAS G12V; read-out: KRAS G12V FRET data IC50
Sequence (P01116 1-169 isoform P01116-2 G12V limits assumed): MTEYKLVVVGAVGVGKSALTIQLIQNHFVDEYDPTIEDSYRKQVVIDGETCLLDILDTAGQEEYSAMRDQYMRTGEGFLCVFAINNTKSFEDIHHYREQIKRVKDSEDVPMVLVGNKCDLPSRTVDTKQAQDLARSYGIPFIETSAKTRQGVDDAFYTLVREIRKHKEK
Sequence (P62937 whole entry): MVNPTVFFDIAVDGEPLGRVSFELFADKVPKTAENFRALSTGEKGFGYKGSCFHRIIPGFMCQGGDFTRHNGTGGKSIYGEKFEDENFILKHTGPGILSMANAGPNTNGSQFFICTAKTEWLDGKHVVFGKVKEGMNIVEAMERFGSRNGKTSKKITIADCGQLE
Hi there, I'd appreciate the recorded IC50 for every entry that follows.

Query: # lookup: IC50 of CCn1c(-c2cccnc2[C@H](C)OC)c2c3cc(ccc31)-c1csc(n1)C[C@H](NC(=O)[C@H](C(C)C)N(C)C(=O)N1CC(OC(F)F)C1)C(=O)N1CCC[C@H](N1)C(=O)OCC(C)(C)C2 (atropisomer, axis not shown) [Example A302]
Reply: 100 to 1000 nM

Query: # lookup: IC50 of CCn1c(-c2cnccc2COC)c2c3cc(ccc31)-c1cc(O)cc(c1)C[C@H](NC(=O)[C@H](C(C)C)N(C)C(=O)[C@H]1CCNC1)C(=O)N1CCC[C@H](N1)C(=O)OCC(C)(C)C2 [Example A10]
Reply: 100 to 1000 nM

Query: # lookup: IC50 of CCn1c(-c2cc(N3CCN(C)CC3)cnc2[C@H](C)OC)c2c3cc(ccc31)-c1csc(n1)C[C@H](NC(=O)[C@H](C(C)C)N(C)C(=O)N1CCC13CCN(C)CC3)C(=O)N1CCC[C@H](N1)C(=O)OCC(C)(C)C2 (atropisomer, axis not shown) [Example A483]
Reply: 100 to 1000 nM

Query: # lookup: IC50 of C=CC(=O)N1CC[C@@H](N(C)C(=O)N(C)[C@H](C(=O)N[C@H]2Cc3nc(cs3)-c3ccc4c(c3)c(c(-c3cccnc3[C@H](C)OC)n4CC(F)(F)F)CC(C)(C)COC(=O)[C@@H]3CCCN(N3)C2=O)C(C)C)C1 (atropisomer, axis not shown) [Example A728]
Reply: 100 to 1000 nM
